Tested on: THRa:RXRa (NR concentration 90 nM, RXRa partner concentration 90 nM)
assay.comment: PBM binding z-score (relative to random genomic background probes); higher = stronger binding; sequences stand for … in GC…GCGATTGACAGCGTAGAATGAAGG
Response field class: string, computed from recorded PBM binding z-score by ranges low-valued: < 2; mid-valued: ≥ 2 and < 3; high-valued: ≥ 3

[[record]]
sequence = "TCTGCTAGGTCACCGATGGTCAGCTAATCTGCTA"
label_value = "high-valued"

[[record]]
sequence = "AGAATGAGGTTAAGATCATGGAAACAGAATACAT"
label_value = "mid-valued"

[[record]]
sequence = "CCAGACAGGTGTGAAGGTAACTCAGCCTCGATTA"
label_value = "low-valued"

[[record]]
sequence = "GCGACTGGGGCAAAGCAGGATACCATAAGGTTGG"
label_value = "mid-valued"

[[record]]
sequence = "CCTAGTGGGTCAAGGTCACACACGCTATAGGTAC"
label_value = "high-valued"

[[record]]
sequence = "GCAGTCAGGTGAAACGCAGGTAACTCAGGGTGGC"
label_value = "low-valued"

[[record]]
sequence = "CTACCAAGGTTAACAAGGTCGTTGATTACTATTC"
label_value = "high-valued"

[[record]]
sequence = "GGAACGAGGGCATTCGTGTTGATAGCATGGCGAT"
label_value = "low-valued"

[[record]]
sequence = "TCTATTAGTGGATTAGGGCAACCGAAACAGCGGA"
label_value = "low-valued"

[[record]]
sequence = "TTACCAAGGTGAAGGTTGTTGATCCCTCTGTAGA"
label_value = "mid-valued"

[[record]]
sequence = "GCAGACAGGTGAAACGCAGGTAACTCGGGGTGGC"
label_value = "low-valued"

[[record]]
sequence = "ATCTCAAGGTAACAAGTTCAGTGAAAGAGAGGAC"
label_value = "mid-valued"

[[record]]
sequence = "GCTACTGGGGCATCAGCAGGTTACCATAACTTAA"
label_value = "low-valued"

[[record]]
sequence = "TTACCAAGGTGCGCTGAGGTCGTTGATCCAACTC"
label_value = "high-valued"

[[record]]
sequence = "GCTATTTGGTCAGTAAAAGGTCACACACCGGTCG"
label_value = "high-valued"

[[record]]
sequence = "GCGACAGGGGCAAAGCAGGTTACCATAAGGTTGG"
label_value = "high-valued"

[[record]]
sequence = "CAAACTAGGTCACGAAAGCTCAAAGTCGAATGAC"
label_value = "high-valued"

[[record]]
sequence = "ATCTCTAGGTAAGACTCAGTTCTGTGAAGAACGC"
label_value = "low-valued"

[[record]]
sequence = "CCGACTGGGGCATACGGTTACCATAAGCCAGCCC"
label_value = "low-valued"

[[record]]
sequence = "CAAACTAGATCAAGAGGTCAAAGTCCGCTTCCCG"
label_value = "high-valued"

[[record]]
sequence = "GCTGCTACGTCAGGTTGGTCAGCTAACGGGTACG"
label_value = "low-valued"

[[record]]
sequence = "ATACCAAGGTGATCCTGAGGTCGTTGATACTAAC"
label_value = "high-valued"

[[record]]
sequence = "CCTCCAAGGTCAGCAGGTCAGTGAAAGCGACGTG"
label_value = "high-valued"

[[record]]
sequence = "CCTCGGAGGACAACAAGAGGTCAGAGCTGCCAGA"
label_value = "mid-valued"

[[record]]
sequence = "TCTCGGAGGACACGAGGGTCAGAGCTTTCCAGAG"
label_value = "mid-valued"

[[record]]
sequence = "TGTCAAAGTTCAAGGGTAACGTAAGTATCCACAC"
label_value = "mid-valued"

[[record]]
sequence = "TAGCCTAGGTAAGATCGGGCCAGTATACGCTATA"
label_value = "low-valued"

[[record]]
sequence = "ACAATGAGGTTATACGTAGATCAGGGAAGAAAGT"
label_value = "mid-valued"

[[record]]
sequence = "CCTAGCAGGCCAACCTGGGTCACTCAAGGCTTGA"
label_value = "high-valued"

[[record]]
sequence = "ATCGAAAGGACGTGAGGTGAGTATACAGAAAGGC"
label_value = "low-valued"

[[record]]
sequence = "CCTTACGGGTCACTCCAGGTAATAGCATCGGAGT"
label_value = "high-valued"

[[record]]
sequence = "ATCTCTAGGTAAAAGTTCAGTGCATCCCGAGGAT"
label_value = "low-valued"

[[record]]
sequence = "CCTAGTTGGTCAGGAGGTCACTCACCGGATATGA"
label_value = "high-valued"

[[record]]
sequence = "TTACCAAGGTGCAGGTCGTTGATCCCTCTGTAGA"
label_value = "low-valued"

[[record]]
sequence = "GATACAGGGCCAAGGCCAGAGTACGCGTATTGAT"
label_value = "low-valued"

[[record]]
sequence = "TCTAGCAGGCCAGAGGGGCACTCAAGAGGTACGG"
label_value = "low-valued"

[[record]]
sequence = "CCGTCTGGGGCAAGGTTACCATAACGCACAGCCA"
label_value = "low-valued"

[[record]]
sequence = "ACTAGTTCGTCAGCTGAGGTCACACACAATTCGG"
label_value = "high-valued"

[[record]]
sequence = "CGTCAAAGTTCAAGGTAACGAAACAGAAAGCAGC"
label_value = "mid-valued"

[[record]]
sequence = "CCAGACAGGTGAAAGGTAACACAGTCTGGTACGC"
label_value = "low-valued"

[[record]]
sequence = "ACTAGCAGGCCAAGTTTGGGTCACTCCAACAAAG"
label_value = "mid-valued"

[[record]]
sequence = "ATATGTAGGTTACATCCAGGTCATTCAGGCTATG"
label_value = "high-valued"

[[record]]
sequence = "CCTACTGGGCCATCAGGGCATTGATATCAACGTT"
label_value = "low-valued"

[[record]]
sequence = "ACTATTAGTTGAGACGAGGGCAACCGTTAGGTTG"
label_value = "mid-valued"

[[record]]
sequence = "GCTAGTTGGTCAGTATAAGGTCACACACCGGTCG"
label_value = "high-valued"

[[record]]
sequence = "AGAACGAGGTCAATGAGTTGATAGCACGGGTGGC"
label_value = "high-valued"

[[record]]
sequence = "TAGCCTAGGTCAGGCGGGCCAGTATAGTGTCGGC"
label_value = "low-valued"

[[record]]
sequence = "ATCTTTAGGTAAAGATAGTTCAGTGAATGCAAAT"
label_value = "low-valued"


Origin of values: the supplement of paper PMC6555819
